- PROCEDURE TEXT: protein stability index of a GFP-peptide fusion (yeast GPS) (PSI 1-4); higher = more stable; sorted into four equal gates, so the index is relative within each strain
- RUN CONDITIONS: pdr5∆
Threshold check on protein stability index: at or above 2 gives yes, strictly below gives no.

QPMISPDNSIFGDTKSE [SWI3]
yes
YDYYALQLLPLQKAVRG [SNF2]
yes
WPIVQKTYEPVLNEDDL [RPN5]
yes
NASQMGNTGSGGYDNAW [RPB3]
yes
TRNITDYSINSRYEPKV [PRE7]
yes
FGHIMEDFQVLRLGRGI [YDL088C/ASM4]
yes
ITKVTENLFSKEEVCQG [YMR129W/POM152]
yes
SNTIDELSTDIILKTRQ [SRB7]
yes
RGRPPKARNGLDYVRTP [SNF2]
no
QNFAEFMTKLLEVANDL [IRR1]
yes
LGKFKNIIASPLSAGFN [SIN4]
no
RNSNPENTVGLISGAGA [RPN10]
yes
PPQLANQQQPPQDILSK [SNF11]
yes
LTKKKNEEINKKSLEED [SEM1]
yes
RNEDARRNLRYGDRMKL [RPO31]
yes
KRPTPPSFTFGGSTTNN [YOR098C/NUP1]
yes
AGLEITSDNLLTITKAA [RPP1B]
yes
VNLEDNTQDLLLLLSLF [YML103C/NUP188]
yes
ILKDLIYRGVLNDENSD [SMC1]
yes
LSLTAVPSFLRPDITMY [GRR1]
yes
INKYESSPSHIELVVTE [RPL17A]
yes
KAAFIRVNGSEFVHKYL [RPT3]
yes
IMATNRLDILDPALLRP [RPT6]
yes
LESFQAVYNKLTGKQIV [RPS7A]
no
KLFNRIVERETNWIIYP [CSN12]
yes
LEIASSIDCLLILILVI [SWI1]
yes
SQHKKILEELDFVRNEL [SMC3]
yes
YKLTNDEEGIFSRFVDQ [YCG1]
yes
PLPHRVQKSTKTFSYKR [RPL20A]
yes
LRYYKNIWLNNKIINWE [NUT1]
yes
SMFLRIDYSNSQIRLYA [RGR1]
yes
RELARIKKYASVVRVLV [RPL3]
no
RSKNLIFNGETLEDALR [GRR1]
yes
NQINSFWSLHSSTYYNL [NUT1]
no
SLDFLNQSFIQQKANLL [COR1]
no
GELGEIRALQPKLKEGA [YIL149C/MLP2]
yes
AFSSVEHIIRDVHNGYI [COB]
yes
YVISLSYTDAQDKSKKI [YMR129W/POM152]
yes
HVKAGKGLIKVNGSPIT [RPS16A]
yes
QKRQLHDISKTETSNED [SNU114]
yes
NVASLVRVQFQFTGFLL [GRR1]
no

* * *

- PROCEDURE TEXT: protein stability index of a GFP-peptide fusion (yeast GPS) (PSI 1-4); higher = more stable; sorted into four equal gates, so the index is relative within each strain
- RUN CONDITIONS: san1∆
// values below are reported protein stability index
QUANTITY NAME: protein stability index

VTQSNILSQQFDKIIKI [SRB8]
2.95
SNSSSSPPIIDLFSNNN [MED1]
2.83
LTFVSVDEELGPSIYKT [SCL1]
3.02
DKKKGQNVTSETHSKKR [ITC1]
3.16
LEDFENFKGLAKEKERM [YIL149C/MLP2]
3.42
SNDVLKPETPKGPIIIS [SIR2]
2.78
KAAFIRVNGSEFVHKYL [RPT3]
2.15
KLVTYIVKFKQKEEGRS [YLR335W/NUP2]
3.33
RYKPGTVALREIRRFQK [HHT1]
3.07
KVSAREKSAYKFFHNGM [FAS2]
3.35
PKSSPLKKNNYNSFPHS [SIR4]
3.07
NIQHLLYGKRFFPYYVH [PRE7]
1.36
IDLLLLGQERATDLAGP [PRP8]
2.34
KHLEDNTLLVTGPFKVN [RPL6B]
3.08
GELGEIRALQPKLKEGA [YIL149C/MLP2]
2.81
SNKPCMGIVQDTLCGIR [RPO21]
2.15
LKWIDTASKFGKGRFQT [RPL3]
3.11
LFGNNNTNNINNSSSGM [YGL172W/NUP49]
3
NSSNLSYNNTGISDDEN [RRP4]
2.87
YVESDEDDTQIVTGNLV [IRR1]
3.08
QQRFQALQQQQQQQQNQ [SWI1]
2.25
GRRISENGQRDLDRIAA [RPS19A]
3.4
QRDLGLYVVGLFDTYHA [RRP6]
1.91
DSENNEENSSSNGNNLP [RGR1]
2.96
TIYNNIREGQNQKIPDN [SIR3]
2.98
LEAKRKVSSAEYYAKKR [RPL16A]
2.86
IPKQLLDDEKIFSQTTN [YJL039C/NUP192]
2.69
LFKTLFKKLTKDIFRYM [RPB2]
1.33
LRIVTHLAICLDIINPG [YDL116W/NUP84]
1.57

* * *

Below, each entry is listed with its recorded protein stability index.
- PROCEDURE TEXT: protein stability index of a GFP-peptide fusion (yeast GPS) (PSI 1-4); higher = more stable; sorted into four equal gates, so the index is relative within each strain
- RUN CONDITIONS: san1∆
QUANTITY NAME: protein stability index

VCKKADVDLHKRAGELT [RPS18A]
3.39
APGKVELAINLIRFDES [SMC2]
3.52
IAYGASQLLLERLMISS [RET1]
2
LNFSTTAPANTTDANGS [MED2]
2.58
KEVASLPNKSTISKTVS [FAS2]
3
ISNKDVIFKIRDRTSGQ [SRB4]
3.42
LRVDEVQGKNLLTNFHG [RPS1A]
3.3
HLLSINYGEKEERKRWA [PCI8]
3.41
QHQSLSRSSSKNVNIED [ESC2]
2.32
AQFRVPRYHSKNSFQQA [SWP82]
2.37
EEAYDNPHDTLNRIKKY [PRP8]
2.27
PLRLRLYDNFVSKFYDK [RPN9]
3.17

* * *

- PROCEDURE TEXT: protein stability index of a GFP-peptide fusion (yeast GPS) (PSI 1-4); higher = more stable; sorted into four equal gates, so the index is relative within each strain
- RUN CONDITIONS: san1∆
Classify as follows. Reported protein stability index greater than or equal to 3: yes (1). Reported protein stability index below: no (0).

KTFEIKEIKTNEYVIKT [YMR129W/POM152]
no (0)
HGHLGFLPRKRAASIRA [RPL3]
no (0)
YDRKKLPRKEVDDVLGG [RPC11]
yes (1)
KHWGGGILGNKAQAKMD [RPL8A]
yes (1)
EVYMRYRNFMVNSYRLN [SWI3]
no (0)
AGGGESDSALILMYKGF [UBP6]
yes (1)
MTYKNKLTVCFDDILKV [MED2]
no (0)
NDELVELLANKCPLLVE [GRR1]
no (0)
FSHSLTTILSFSSPAAL [NUT1]
no (0)
KLSDIFLSKPSKALYPD [SNF2]
no (0)
MVEWLESRSFSPIPFPP [PRP8]
yes (1)
GVLKPDITFFGEALPNK [SIR2]
yes (1)
VTTCVYLACKVEECPQY [SSN8]
no (0)
HYLVNLTSPAFGPHVDV [GRR1]
no (0)
LGVVFGRGGSGWKPYYK [YML031W/NDC1]
yes (1)
LKETVIPSLANNGNNST [POP6]
no (0)
TEELSITGEKLDTQLND [SMC1]
no (0)
HKQISAEDLTIAAKTHI [SIN4]
yes (1)
EQKKTATEVTPQEPKHI [RPC19]
no (0)
NEYRLAFYQVTPEEDEE [RPL22A]
no (0)

* * *

Listed here: items and their measured protein stability index.
- PROCEDURE TEXT: protein stability index of a GFP-peptide fusion (yeast GPS) (PSI 1-4); higher = more stable; sorted into four equal gates, so the index is relative within each strain
- RUN CONDITIONS: san1∆
QUANTITY NAME: protein stability index

WCTTCKSAENIIKMTIP [RET1]
3.11
SIRLKVPPTIAQFQYTL [RPL8A]
1.93
SPEESKARSPGIAKPNA [SIR4]
3.09
RLPVSEDTNTKPLFDFG [YOR098C/NUP1]
1.93
IIMHKDVEIGRMPIMLR [RET1]
2.98
VVPDLGHLNGHTPTIAS [SSN2]
2.69
LGLGIAFAGSKNDEVLG [RPN1]
2.81
NANEISANTNNTCTIST [SWP82]
2.9
NSTNSNTTKPAFGGLNF [YJL041W/NSP1]
3.14
DFHFSTDRITRLFIKPG [BRN1]
2.16
LGKFKNIIASPLSAGFN [SIN4]
1.95
LYQSKGRYMEALALYVD [SRP68]
1.9
GPHKGKAPRILSTGRKF [RPL18A]
3.21
EIVWTSSLIKAGLDKGI [RPO31]
2.54
KLRDHEPDLESQISKAE [SMC4]
3.16
QIEKKEIKKMIITNINA [YCG1]
2.7
LFRAIYLYCLDNNITEM [YCG1]
2.1
